Ref: PubChem BioAssay AID1224921

In this section, each of the compounds is paired with its reported max activity.
assay: inhibitors of Clostridioides difficile proliferation – 4-point retest, confirmation (AID 1224921); conditions: Clostridioides difficile clinical isolate growth, OD600, 24 h, hits give low values; at 30 µM unless noted;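 also: plate controls were DMSO wells for no effect and levofloxacin 16 µg/mL wells for full effect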
Hit rate of the full screen: of about 1,400 compounds, about 350 (25%) were called active. Inconclusive results (about 2%) are left out. Not all results are given here. Entries with a potency or affinity are not part of this list.

Past entries and their recorded results:
C[C@H](CO)N1C[C@H](C)[C@@H](CN(C)Cc2ccccn2)Oc2cc(C3=CCCCC3)ccc2S1(=O)=O : 33.3% (inactive)
CC(C)[C@H](C)NC(=O)N(C)C[C@@H]1OCc2ccccc2-c2ccccc2C(=O)N([C@@H](C)CO)C[C@H]1C : -10.9% [at 1.95 µM] (inactive)
C[C@H]1CN([C@@H](C)CO)S(=O)(=O)c2ccc(C#CC3CCCC3)cc2O[C@H]1CN(C)C(=O)Cc1ccccc1 : 16.1% (inactive)

Attention now shifts to the item below.
Param item = COc1ccc(CN(C)C[C@H]2Oc3ccc(NC(=O)Nc4ccc(C(F)(F)F)cc4)cc3C(=O)N([C@@H](C)CO)C[C@H]2C)cc1 ; retrieve measured max activity. -5.09% [at 0.5 µM] (inactive)

----------
experiment: inhibitors of Clostridioides difficile proliferation – 4-point retest, confirmation (AID 1224921); conditions: Clostridioides difficile clinical isolate growth, OD600, 24 h, hits give low values; at 30 µM unless noted;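 also: plate controls were DMSO wells for no effect and levofloxacin 16 µg/mL wells for full effect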
Hit rate of the full screen: of about 1,400 compounds, about 350 (25%) were called active. About 2% were inconclusive and are not listed. Not all results are given here. Measured potencies and affinities stand elsewhere.
ASSAY ENDPOINT: max activity

Past entries and their recorded results:
CO[C@@H]1CN(C)C(=O)c2cc(NC(=O)NC(C)C)ccc2OC[C@H](C)N(C)C[C@@H]1C : -5.88% (inactive)
COc1ccc(CN(C)C[C@@H]2Oc3c(NC(=O)Nc4ccc(C(F)(F)F)cc4)cccc3C(=O)N([C@@H](C)CO)C[C@H]2C)cc1 : 38% (inactive)
C[C@@H](C(=O)N(C)C[C@H]1OCc2ccccc2-c2ccccc2C(=O)N([C@@H](C)CO)C[C@@H]1C)c1ccccc1 : -9.53% [at 8 µM] (inactive)

Param item = COc1ccc(CN(C)C[C@H]2Oc3c(NC(=O)Nc4ccc(C(F)(F)F)cc4)cccc3C(=O)N([C@@H](C)CO)C[C@@H]2C)cc1 ; retrieve measured max activity. 32.3% [at 8 µM] (inactive)

Record: COc1ccc(S(=O)(=O)Nc2cccc3c2O[C@@H](CN(C)S(=O)(=O)c2c(C)noc2C)[C@H](C)CN([C@H](C)CO)C3=O)cc1 14.4% (inactive)

Record: NC(=O)[C@@H]1[C@H]2C(=O)O[C@H](c3ccccc3)[C@H](c3ccccc3)N2[C@H](c2ccc(O)cc2)[C@@]12C(=O)Nc1ccc(C#CC3=CCCCC3)cc12 21.8% (inactive)

Record: Cc1nn(C)cc1NC(=O)C[C@@H]1CC[C@@H]2[C@@H](COc3ccc(NC(=O)Nc4cccc(Cl)c4)cc3C(=O)N2C)O1 10.1% (inactive)

----------
test: inhibitors of Clostridioides difficile proliferation – 4-point retest, confirmation (AID 1224921); conditions: Clostridioides difficile clinical isolate growth, OD600, 24 h, hits give low values; at 30 µM unless noted;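 also: plate controls were DMSO wells for no effect and levofloxacin 16 µg/mL wells for full effect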
Hit rate of the full screen: of about 1,400 compounds, about 350 (25%) were called active. Another 2% or so got no clear call; they are omitted. Only a sample is shown. Entries with a potency or affinity are not part of this list.
ASSAY ENDPOINT: max activity

Past entries and their recorded results:
C[C@H](NC(=O)C[C@@H]1C[C@@H]2c3cc(NC(=O)NC4CCCCC4)ccc3O[C@@H]2[C@H](CO)O1)c1ccccc1 : -12.5% [at 1.95 µM] (inactive)
COc1cccc(NC(=O)N[C@H]2C=C[C@@H](CC(=O)NCc3ccncn3)O[C@H]2CO)c1 : -10.2% [at 1.95 µM] (inactive)
Cc1ccc(-c2ccc3c(c2)O[C@H](CN(C)C(=O)NC(C)C)[C@H](C)CN([C@@H](C)CO)S3(=O)=O)cc1 : 20.5% (inactive)

Param item = CO[C@H]1CN(C)C(=O)c2ccc(NC(=O)C3CCC3)cc2OC[C@H](C)N(C(=O)CN(C)C)C[C@H]1C ; retrieve measured max activity. -8.4% (inactive)
